- Test system: control mice
- EXPERIMENT: Acute (24 hour) tolerance, tail flick, control mice
- Assay type: in vivo
- PROTOCOL_CONDITIONS: controls, i.c.v.
ENDPOINT_NAME: Tolerance

Quick one: Tolerance for Cc1cccc(C#Cc2cccc(OCCNC(=O)COCC(=O)NCCCNC(=O)COCC(=O)N[C@H]3CC[C@@]4(O)C5Cc6ccc(O)c7c6[C@@]4(CCN5C)[C@H]3O7)c2)n1 [Compound 4b] ?
No Tolerance

Quick one: Tolerance for Cc1cccc(C#Cc2cccc(OCCNC(=O)COCC(=O)NCCNC(=O)COCC(=O)N[C@H]3CC[C@@]4(O)C5Cc6ccc(O)c7c6[C@@]4(CCN5C)[C@H]3O7)c2)n1 [Compound 4a] ?
Tolerance

Quick one: Tolerance for Cc1cccc(C#Cc2cccc(OCCNC(=O)COCC(=O)N[C@H]3CC[C@@]4(O)C5Cc6ccc(O)c7c6[C@@]4(CCN5C)[C@H]3O7)c2)n1 [Compound 3] ?
Tolerance

Quick one: Tolerance for Cc1cccc(C#Cc2cccc(OCCNC(=O)COCC(=O)NCCCCCNC(=O)COCC(=O)N[C@H]3CC[C@@]4(O)C5Cc6ccc(O)c7c6[C@@]4(CCN5C)[C@H]3O7)c2)n1 [Compound 4c] ?
No Tolerance

###

- Test system: control mice
- EXPERIMENT: Acute (24 hour) tolerance, tail flick, control mice
- Format: in vivo
- PROTOCOL_CONDITIONS: controls, i.t.
ENDPOINT_NAME: Tolerance

Quick one: Tolerance for Cc1cccc(C#Cc2cccc(OCCNC(=O)COCC(=O)N[C@H]3CC[C@@]4(O)C5Cc6ccc(O)c7c6[C@@]4(CCN5C)[C@H]3O7)c2)n1 ?
No Tolerance

Quick one: Tolerance for Cc1cccc(C#Cc2cccc(OCCNC(=O)COCC(=O)NCCCCCNC(=O)COCC(=O)N[C@H]3CC[C@@]4(O)C5Cc6ccc(O)c7c6[C@@]4(CCN5C)[C@H]3O7)c2)n1 ?
No Tolerance

Quick one: Tolerance for Cc1cccc(C#Cc2cccc(OCCNC(=O)COCC(=O)NCCCNC(=O)COCC(=O)N[C@H]3CC[C@@]4(O)C5Cc6ccc(O)c7c6[C@@]4(CCN5C)[C@H]3O7)c2)n1 ?
No Tolerance

###

- Test system: control mice
- EXPERIMENT: Radiant tail flick antinociception, control (not pretreated) mice
- Assay type: in vivo
- PROTOCOL_CONDITIONS: controls, i.t., tail flick
Rule: measured ED50 (CI) i.t. below 40 pmol/mouse gets Fulfilled; anything equal to or greater than 40 pmol/mouse gets Not fulfilled.

Strictly below 40 pmol/mouse: is that where ED50 (CI) i.t. of Cc1cccc(C#Cc2cccc(OCCNC(=O)COCC(=O)NCCNC(=O)COCC(=O)N[C@H]3CC[C@@]4(O)C5Cc6ccc(O)c7c6[C@@]4(CCN5C)[C@H]3O7)c2)n1 [Compound 4a] sits?
Fulfilled

Strictly below 40 pmol/mouse: is that where ED50 (CI) i.t. of Cc1cccc(C#Cc2cccc(OCCNC(=O)COCC(=O)N[C@H]3CC[C@@]4(O)C5Cc6ccc(O)c7c6[C@@]4(CCN5C)[C@H]3O7)c2)n1 [Compound 3] sits?
Not fulfilled

Strictly below 40 pmol/mouse: is that where ED50 (CI) i.t. of Cc1cccc(C#Cc2cccc(OCCNC(=O)COCC(=O)NCCCCCNC(=O)COCC(=O)N[C@H]3CC[C@@]4(O)C5Cc6ccc(O)c7c6[C@@]4(CCN5C)[C@H]3O7)c2)n1 [Compound 4c] sits?
Fulfilled

Strictly below 40 pmol/mouse: is that where ED50 (CI) i.t. of Cc1cccc(C#Cc2cccc(OCCNC(=O)COCC(=O)NCCCCCCCNC(=O)COCC(=O)N[C@H]3CC[C@@]4(O)C5Cc6ccc(O)c7c6[C@@]4(CCN5C)[C@H]3O7)c2)n1 [Compound 4d] sits?
Not fulfilled

Strictly below 40 pmol/mouse: is that where ED50 (CI) i.t. of Cc1cccc(C#Cc2cccc(OCCNC(=O)COCC(=O)NCCCNC(=O)COCC(=O)N[C@H]3CC[C@@]4(O)C5Cc6ccc(O)c7c6[C@@]4(CCN5C)[C@H]3O7)c2)n1 [Compound 4b] sits?
Fulfilled

These entries and their values trace back to patent US9981043B2.
